Value source: patent US11267825B2

List of pIC50 values.
experimentalTarget: HBV core protein (UniProt P03146)
Sequence (P03146 whole entry, looked up): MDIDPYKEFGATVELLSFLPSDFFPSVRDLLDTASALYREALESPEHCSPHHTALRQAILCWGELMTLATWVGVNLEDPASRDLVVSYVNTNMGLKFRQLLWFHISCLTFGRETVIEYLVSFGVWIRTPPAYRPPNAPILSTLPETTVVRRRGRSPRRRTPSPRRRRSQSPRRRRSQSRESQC
Type: biochemical
conditionDescription: read-out: Assembly Activity (IC50); BODIPY-FL labelled core protein, assembly started with NaCl, read after 6 min
pIC50: −log10 of the molar value.

In [3]: df
Out[3]:
                                   compound                 experimentaltarget  measuredresult
0  CN(C)C1(CNc2nc3c(s2)CN(C(=O)c2cc4ccccc4[nH]2)CC3)CCC1 [Example 433]  HBV core protein (UniProt P03146)          > 5.30
1  CCNC(=O)C1(CNc2nc3c(s2)CN(C(=O)c2cc4ccccc4[nH]2)CC3)CCC1 [Example 417]  HBV core protein (UniProt P03146)          > 5.30

Request: What value of pIC50 has been recorded for this entry: CCc1cc(F)cc2[nH]c(C(=O)N3CCc4nc(NCC5CCOC5)sc4C3)cc12 (stereo not shown) [Example 255]
Result: > 5.30

Request: For the compound shown here, COCCNc1nc2c(s1)CN(C(=O)c1cc3ccccc3[nH]1)CC2 [Example 97] , give the reported pIC50.
Result: > 5.30
